Recorded IC50 values for a group of compounds are listed next.
# System Name: CyclinE1/CDK2 (Homo sapiens, UniProt P24864)
# Construct: purchased Eurofins, discovery 14-475
# Assay: Fluorescence Polarization (FP) competitive binding assay, Cyclin E1/Cdk2;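 also: readings taken after two-hour equilibration at room temperature in HEPES buffer with NaCl, DTT, NP-40 and BSA, IC50 fitted from eight-concentration serial dilution series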
# Experimental Setup: 10 nM Cyclin E1/Cdk2, 2 nM FAM probe; average of 2-3 independent experiments; read-out: Cyclin E FP IC50
*1 amine or outer side, *2 acyl side, *3 side chain or, on linkers, in order; H or OH if unused. Where a SMILES comes first, the peptide text is derived from it. Bridges are numbered along the chain shown (N, C = ends). [ ]: non-standard residue; d: D form. The star is where a group is joined. NMePhe(2-(4-MorPh),5-Cl) = CN[C@@H](Cc1cc(Cl)ccc1-c1ccc(N2CCOCC2)cc1)C(=O)O; X3 = COCCOCCN1CCN(c2ccc(-c3ccc(Cl)cc3C[C@@H](C(=O)[*:2])N(C)[*:1])cc2)CC1; X42 = CN([C@@H](Cc1cc(Cl)ccc1-c1cnn(S(=O)(=O)C2CC2)c1)C(=O)[*:2])[*:1]; X12 = CN1CCN(c2ccc(-c3ccc(F)cc3C[C@@H](C(=O)[*:2])N(C)[*:1])cc2)CC1; X167 = CN([C@@H](Cc1cc(F)ccc1C1=CCN(S(C)(=O)=O)CC1)C(=O)[*:2])[*:1]; X177 = CN([C@@H](Cc1cc(F)ccc1C1=CC2CCC(C1)N2)C(=O)[*:2])[*:1]; NMehhhLys(Me) = CN([C@@H](CCCCCCCN(C)[*:3])C(=O)[*:2])[*:1]; X22 = CN([C@@H](Cc1cc(Cl)ccc1-c1cnn(C)c1)C(=O)[*:2])[*:1]; NMe(hhhLys) = CN([C@@H](CCCCCCCN[*:3])C(=O)[*:2])[*:1]; X28 = CN([C@@H](Cc1cc(Cl)cnc1OC1CCC1)C(=O)[*:2])[*:1]; Cyclobutanecarbonyl(1-CF3) = O=C(C1(C(F)(F)F)CCC1)*; cBuCO(3,3-F2-1-CF3) = O=C(C1(C(F)(F)F)CC(F)(F)C1)*; Pro(trans-4-F) = O=C(O)[C@@H]1C[C@@H](F)CN1; X27 = O=C([C@]1(C(F)(F)F)CCCCO1)*; Gly(cPr) = N[C@H](C(=O)O)C1CC1
Give the quantity in nM, number only.

Examples with answers:
CC(C)C[C@@H]1NC(=O)[C@@H](N(C)C(=O)[C@@H](NC(=O)[C@@H]2C[C@@H](F)CN2C(=O)C2(C(F)(F)F)CC(F)(F)C2)C2CC2)CCCCCCCN(C)C(=O)[C@H](Cc2cc(F)ccc2C2=CCN(S(C)(=O)=O)CC2)N(C)C1=O [Example 100] ({cBuCO(3,3-F2-1-CF3)}-[Pro(trans-4-F)][Gly(cPr)][NMehhhLys(Me)]L[X167]; lactam 3-C)
450
CC(C)C[C@@H]1NC(=O)[C@@H](N(C)C(=O)[C@@H](NC(=O)[C@@H]2C[C@@H](F)CN2C(=O)[C@]2(C(F)(F)F)CCCCO2)C2CC2)CCCCCCCN(C)C(=O)[C@H](Cc2cc(Cl)ccc2-c2cnn(C)c2)N(C)C1=O [Example 183] (X27-[Pro(trans-4-F)][Gly(cPr)][NMehhhLys(Me)]L[X22]; lactam 3-C)
280
CC(C)C[C@@H]1NC(=O)C(N(C)C(=O)[C@@H](NC(=O)[C@@H]2C[C@@H](F)CN2C(=O)C2(C(F)(F)F)CC(F)(F)C2)C2CC2)C/C=C\CCCCN(C)C(=O)[C@H](Cc2cc(Cl)ccc2-c2ccc(N3CCN(C)CC3)cc2)N(C)C1=O (stereo partly shown)
260
CC(C)C[C@@H]1NC(=O)[C@@H](N(C)C(=O)[C@@H](NC(=O)[C@@H]2C[C@@H](F)CN2C(=O)C2(C(F)(F)F)CC(F)(F)C2)C2CC2)CCCCCCCN(C)C(=O)[C@H](Cc2cc(F)ccc2C2=CC3CCC(C2)N3)N(C)C1=O (stereo partly drawn) [Example 165] ({cBuCO(3,3-F2-1-CF3)}-[Pro(trans-4-F)][Gly(cPr)][NMehhhLys(Me)]L[X177]; lactam 3-C)
5470
CCOC(=O)N1CC=C(c2ccc(Cl)cc2C[C@H]2C(=O)NCCCCC=CC[C@H](N(C)C(=O)[C@@H](NC(=O)[C@@H]3C[C@@H](F)CN3C(=O)C3(C(F)(F)F)CC(F)(F)C3)C3CC3)C(=O)N[C@@H](CC(C)C)C(=O)N2C)CC1
12400
CC(=O)N1C2C=C(c3ccc(F)cc3C[C@H]3C(=O)N(C)CCCCCCC[C@H](N(C)C(=O)[C@@H](NC(=O)[C@@H]4C[C@@H](F)CN4C(=O)C4(C(F)(F)F)CC(F)(F)C4)C4CC4)C(=O)N[C@@H](CC(C)C)C(=O)N3C)CC1CC2 (stereo partly shown)
560
CC(C)C[C@@H]1NC(=O)[C@@H](N(C)C(=O)[C@@H](NC(=O)[C@@H]2C[C@@H](F)CN2C(=O)C2(C(F)(F)F)CC(F)(F)C2)C2CC2)CCCCCCCN(C)C(=O)[C@H](Cc2cc(F)ccc2-c2ccc(N3CCN(C)CC3)cc2)N(C)C1=O [Example 353] ({cBuCO(3,3-F2-1-CF3)}-[Pro(trans-4-F)][Gly(cPr)][NMehhhLys(Me)]L[X12]; lactam 3-C)
220
CC(C)C[C@@H]1NC(=O)[C@@H](N(C)C(=O)[C@@H](NC(=O)[C@@H]2C[C@@H](F)CN2C(=O)C2(C(F)(F)F)CC(F)(F)C2)C2CC2)CCCCCCCNC(=O)[C@H](Cc2cc(Cl)ccc2-c2ccc(N3CCOCC3)cc2)N(C)C1=O [Example 333] ({cBuCO(3,3-F2-1-CF3)}-[Pro(trans-4-F)][Gly(cPr)][NMe(hhhLys)]L[NMePhe(2-(4-MorPh),5-Cl)]; lactam 3-C)
1150

Per the records, this compound ( "CC(C)C[C@@H]1NC(=O)[C@@H](N(C)C(=O)[C@@H](NC(=O)[C@@H]2C[C@@H](F)CN2C(=O)C2(C(F)(F)F)CC(F)(F)C2)C2CC2)CC=CCCCCN(C)C(=O)[C@H](Cc2cc(F)ccc2-c2cnn(C)c2)N(C)C1=O" ) has IC50 equal to 370

So for CC(C)C[C@@H]1NC(=O)[C@@H](N(C)C(=O)[C@@H](NC(=O)[C@@H]2C[C@@H](F)CN2C(=O)C2(C(F)(F)F)CC(F)(F)C2)C2CC2)CCCCCCCNC(=O)[C@H](Cc2cc(Cl)ccc2-c2cnn(S(=O)(=O)C3CC3)c2)N(C)C1=O [Example 300] ({cBuCO(3,3-F2-1-CF3)}-[Pro(trans-4-F)][Gly(cPr)][NMe(hhhLys)]L[X42]; lactam 3-C) , the logged IC50 turned out to be 680

The reported IC50 of the compound "CC(C)C[C@@H]1NC(=O)[C@@H](N(C)C(=O)[C@@H](NC(=O)[C@@H]2C[C@@H](F)CN2C(=O)C2(C(F)(F)F)CC(F)(F)C2)C2CC2)CC=CCCCCN(C)C(=O)[C@H](Cc2cc(F)ccc2C2=CCCC2)N(C)C1=O" was 350

For reference, reported IC50 for CC(C)C[C@@H]1NC(=O)[C@@H](N(C)C(=O)[C@@H](NC(=O)[C@@H]2C[C@@H](F)CN2C(=O)C2(C(F)(F)F)CCC2)C2CC2)CCCCCCCN(C)C(=O)[C@H](Cc2cc(Cl)cnc2OC2CCC2)N(C)C1=O [Example 139] ({Cyclobutanecarbonyl(1-CF3)}-[Pro(trans-4-F)][Gly(cPr)][NMehhhLys(Me)]L[X28]; lactam 3-C) stands at 100

The reported value for COCCOCCN1CCN(c2ccc(-c3ccc(Cl)cc3C[C@H]3C(=O)N(C)CCCCCCC[C@H](N(C)C(=O)[C@@H](NC(=O)[C@@H]4C[C@@H](F)CN4C(=O)C4(C(F)(F)F)CC(F)(F)C4)C4CC4)C(=O)N[C@@H](CC(C)C)C(=O)N3C)cc2)CC1 [Example 356] ({cBuCO(3,3-F2-1-CF3)}-[Pro(trans-4-F)][Gly(cPr)][NMehhhLys(Me)]L[X3]; lactam 3-C) in terms of IC50 is 340
